# Tested on: LC-2-ad
# assayInfo: relative viability (nuclei count vs DMSO), 5 days (fraction); higher = more cells survive
# setupConditions: first compound 0.0002 µM
// NB: equality with 0.5 counts as Criterion not met; only relative viability strictly below is Criterion met

Would you please look over these solved cases?
# compound, answerLabel
measured = [
    ("CC(=O)O[C@@]12CO[C@@H]1C[C@H](O)[C@@]1(C)C(=O)[C@H](O)C3=C(C)[C@@H](OC(=O)[C@H](O)[C@@H](NC(=O)OC(C)(C)C)c4ccccc4)C[C@@](O)([C@@H](OC(=O)c4ccccc4)[C@H]21)C3(C)C [Docetaxel] + COc1cccc2cc(-c3nc([C@H]4CC[C@H](C(=O)O)CC4)n4ncnc(N)c34)[nH]c12 [OSI-027] (partner 0.5 µM)", "Criterion not met"),
    ("CC(=O)O[C@@]12CO[C@@H]1C[C@H](O)[C@@]1(C)C(=O)[C@H](O)C3=C(C)[C@@H](OC(=O)[C@H](O)[C@@H](NC(=O)OC(C)(C)C)c4ccccc4)C[C@@](O)([C@@H](OC(=O)c4ccccc4)[C@H]21)C3(C)C [Docetaxel] + CC(=O)c1c(C)c2cnc(Nc3ccc(N4CCNCC4)cn3)nc2n(C2CCCC2)c1=O [Palbociclib] (partner 0.5 µM)", "Criterion met"),
    ("CC(=O)O[C@@]12CO[C@@H]1C[C@H](O)[C@@]1(C)C(=O)[C@H](O)C3=C(C)[C@@H](OC(=O)[C@H](O)[C@@H](NC(=O)OC(C)(C)C)c4ccccc4)C[C@@](O)([C@@H](OC(=O)c4ccccc4)[C@H]21)C3(C)C [Docetaxel] + Cc1nc(Nc2ncc(C(=O)Nc3c(C)cccc3Cl)s2)cc(N2CCN(CCO)CC2)n1 [Dasatinib] (partner 0.075 µM)", "Criterion met"),
]

Turning now to a further record.
Lookup: relative viability under 0.5? Item: CC(=O)O[C@@]12CO[C@@H]1C[C@H](O)[C@@]1(C)C(=O)[C@H](O)C3=C(C)[C@@H](OC(=O)[C@H](O)[C@@H](NC(=O)OC(C)(C)C)c4ccccc4)C[C@@](O)([C@@H](OC(=O)c4ccccc4)[C@H]21)C3(C)C [Docetaxel] + CC(=O)Nc1cccc(-n2c(=O)n(C3CC3)c(=O)c3c(Nc4ccc(I)cc4F)n(C)c(=O)c(C)c32)c1 [Trametinib] (partner 0.02 µM)
Found: Criterion not met

====

# Tested on: NCI-H520
# assayInfo: relative viability (nuclei count vs DMSO), 5 days (fraction); higher = more cells survive
# setupConditions: first compound 0.05 µM
// NB: equality with 0.6 counts as false (0); only relative viability strictly below is true (1)

Would you please look over these solved cases?
# compound, answerLabel
rows = [
    ("COc1cc2nccc(Oc3ccc(NC(=O)Nc4cc(C)on4)c(Cl)c3)c2cc1OC [Tivozanib] + CS(=O)(=O)CCNCc1ccc(-c2ccc3ncnc(Nc4ccc(OCc5cccc(F)c5)c(Cl)c4)c3c2)o1 [Lapatinib] (partner 2 µM)", "false (0)"),
    ("COc1cc2nccc(Oc3ccc(NC(=O)Nc4cc(C)on4)c(Cl)c3)c2cc1OC [Tivozanib] + COc1cc2c(Oc3ccc(NC(=O)C4(C(=O)Nc5ccc(F)cc5)CC4)cc3F)ccnc2cc1OCCCN1CCOCC1 [Foretinib] (partner 0.25 µM)", "false (0)"),
    ("Nc1ccn([C@@H]2O[C@H](CO)[C@@H](O)[C@@H]2O)c(=O)n1 [Cytarabine] + Nc1nc2[nH]cc(CCc3ccc(C(=O)N[C@@H](CCC(=O)O)C(=O)O)cc3)c2c(=O)[nH]1 [Pemetrexed] (partner 0.2 µM)", "false (0)"),
]

Lookup: relative viability under 0.6? Item: Nc1ccn([C@@H]2O[C@H](CO)[C@@H](O)[C@@H]2O)c(=O)n1 [Cytarabine] + CS(=O)(=O)CCNCc1ccc(-c2ccc3ncnc(Nc4ccc(OCc5cccc(F)c5)c(Cl)c4)c3c2)o1 [Lapatinib] (partner 2 µM)
Found: false (0)

Lookup: relative viability under 0.6? Item: Nc1ccn([C@@H]2O[C@H](CO)[C@@H](O)[C@@H]2O)c(=O)n1 [Cytarabine] + COc1cccc2cc(-c3nc([C@H]4CC[C@H](C(=O)O)CC4)n4ncnc(N)c34)[nH]c12 [OSI-027] (partner 0.5 µM)
Found: true (1)

Lookup: relative viability under 0.6? Item: Nc1ccn([C@@H]2O[C@H](CO)[C@@H](O)[C@@H]2O)c(=O)n1 [Cytarabine] + O=C(CCCCCCC(=O)Nc1ccccc1)NO [Vorinostat] (partner 1 µM)
Found: false (0)

Lookup: relative viability under 0.6? Item: COc1cc2nccc(Oc3ccc(NC(=O)Nc4cc(C)on4)c(Cl)c3)c2cc1OC [Tivozanib] + Cc1cc(Nc2cc(N3CCN(C)CC3)nc(Sc3ccc(NC(=O)C4CC4)cc3)n2)n[nH]1 [Tozasertib] (partner 0.1 µM)
Found: true (1)

Lookup: relative viability under 0.6? Item: COc1cc2nccc(Oc3ccc(NC(=O)Nc4cc(C)on4)c(Cl)c3)c2cc1OC [Tivozanib] + N=C(N)NC(=N)NCCc1ccccc1 [Phenformin] (partner 250 µM)
Found: false (0)
